Each entry below lists one item and its recorded protein stability index value.
B1: PDZK1 (parent)
chain: RETASLKLLPHQPRIVEMKKGSNG

variants of: B1; test: protein stability index of a GFP-peptide fusion (GPS, HEK-293T) (PSI 1-6); higher = more stable; details: c terminus: a fixed tail appended;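 further: lentivirally expressed fusions sorted by FACS into six bins by GFP to DsRed ratio, PSI derived from sequencing read proportions per bin multiplied by bin number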

Dear colleague, I am looking for the recorded protein stability index of the following variant: R1P 3.24

Dear colleague, I am looking for the recorded protein stability index of the following variant: K20E 4.87

Dear colleague, I am looking for the recorded protein stability index of the following variant: R14Y 3.34

Dear colleague, I am looking for the recorded protein stability index of the following variant: G21A 2.67

Dear colleague, I am looking for the recorded protein stability index of the following variant: S5D 3.77

Dear colleague, I am looking for the recorded protein stability index of the following variant: E2N 3.57

Dear colleague, I am looking for the recorded protein stability index of the following variant: Q12M 3.38
